Test: qHTS Assay for NPC1 Promoter Activators: Initial hit validation from the primary screen
Conditions: Huh7 NPC1 promoter-luciferase reporter, luminescence, 24 h; series mostly up to 46.1 µM
Inconclusive results are not listed. Calls of active or inactive are those of the source. The call rests on the fitted dose curve; in most records, active means well fitted activation curve with a large enough effect; inconclusive means small, poorly fitted or top-dose-only effect; inactive means flat fitted curve, though single readings scatter.
Classes used: TRUE (active), FALSE (inactive)

• Cc1nnc2n(c1=O)N=C(c1ccc(Cl)cc1)CS2 = TRUE
• O=C(NNC(=O)C1COc2ccccc2O1)c1ccccc1O (configuration not stated) = FALSE
• O=C(NCCc1ccccc1)c1cc2ncc(Br)cn2n1 = TRUE
• Cc1ccc(NC(=O)c2cccc(N3C(=O)CCC3=O)c2)nc1 = FALSE
• O=C(CSc1nnc(-c2ccccn2)o1)Nc1ccccc1F = TRUE
• O=C(NC1CCCC1)C(c1ccc(F)cc1)N(C(=O)c1csnn1)c1ccccc1 (configuration not stated) = FALSE
• COc1cccc(NC(=O)CN2C(=O)CSc3ccc(S(=O)(=O)N4CCC(C)CC4)cc32)c1 = FALSE
• C=CCOC(=O)N1CCN(c2cccc(C(F)(F)F)c2)CC1 = FALSE
• N#CC/C(N)=N/NC(=O)CCCNc1ncc(C(F)(F)F)cc1Cl = TRUE
• COCCNC(=O)CN1C(=O)NC(c2ccccc2)(c2ccccc2)C1=O = FALSE
• O=C(CCN1C(=O)c2ccccc2C1=O)Nc1ccc(-c2nc3ccccc3s2)cc1 = TRUE
• COc1ccc(OC)c(S(=O)(=O)N2CCN3CCCC3C2)c1 (configuration not stated) = FALSE
• NC(=O)C(=O)NN=C1C2CC3CC(C2)CC1C3 = FALSE
• Cc1ccccc1NC(=O)Cc1nc(COC(=O)CC(C)c2ccccc2)cs1 (configuration not stated) = FALSE
• CC1(C)CC(=O)c2c(O)c(-c3ccccc3)c(=O)n(-c3ccccc3)c2C1 = FALSE
• CC(C)C1(CCNC(=O)c2cccs2)CCOC(C)(C)C1 (configuration not stated) = FALSE
• O=C(/C=C/c1ccco1)NCC1OCCc2ccccc21 (configuration not stated) = FALSE
• CN(C)C(=O)[C@H]1C[C@H]1[C@@H](O)[C@H](CO)NC(=O)[C@H](COCc1ccccc1)NC(=O)OC(C)(C)C = FALSE
• CC1CC(C)CN(CC(=O)N2CCOCC2)C1 (configuration not stated) = FALSE
• Cc1cccc(NC(=O)CSc2nc3ccccc3o2)c1 = FALSE
• NC(=O)C1(NC(=O)[C@@H]2CC3(CC(c4cccc(NC(=O)[C@@H]5CCC(=O)N5)c4)=NO3)CN2C(=O)c2ccccc2)CC1 (some centres not stated) = FALSE
• CCC(C)(C)NC(=O)C(c1ccc(OC)cc1)N(Cc1cccs1)C(=O)CCC(=O)Nc1cc(C)on1 (configuration not stated) = FALSE
• COCCn1c(SCc2ccc(C(=O)OC)o2)nc2cc(Cl)ccc2c1=O = FALSE
• Cc1ccc(N(O)C(=O)NCCCCNC(=O)N(O)c2ccc(C)cc2)cc1 = TRUE
• CC(C)C(NC(=O)c1ccc([N+](=O)[O-])cc1Cl)C(=O)N1CCCC1 (configuration not stated) = FALSE
• Cc1ccc(N=Cc2sc(O)c3ccccc23)c(C)c1 = TRUE
• CCC(=O)N1c2ccccc2NC2=C(C(=O)CCC2)C1c1ccc(N(C)C)cc1 (configuration not stated) = FALSE
• Cc1ccc(C)c(Nc2cc(C)nc3ncnn23)c1 = FALSE
• CCN(C(=O)COC(=O)c1ccc(C=O)cc1)c1c(N)n(Cc2ccccc2)c(=O)[nH]c1=O = FALSE
• Cc1nn(CCCC(=O)NCc2ccc(F)cc2)c(C)c1[N+](=O)[O-] = FALSE
• O=S(=O)(c1cccs1)N1CCN(c2ncccn2)CC1 = FALSE
• COc1ccccc1CNC(=O)COc1ccc(C)cc1 = FALSE

Origin of the recorded values: PubChem BioAssay AID493203
